- measured-target: T1, 4H741-bA
- T1 chain: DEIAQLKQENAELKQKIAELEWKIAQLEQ
- experimental-protocol: two-hybrid library CCNG1;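 further: natural log of median RNA to DNA barcode read ratio; higher means stronger binding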
endpoint-name: interaction score

Here is how some binders turned out for interaction score.
binder	interaction score
DKIAQLKQKIAELEQENAELEWKNAQLEQ [4H2839-bA]	-0.816
DEIAQLEQEIAELKQKNAELKWEIAQLEQ [4H121-bA]	-1.09
DKIAQLKQKIAELKQKIAELEWENAQLEQ [4H2915-bA]	-0.66
DEIAQLEQEIAELEQKIAELEWKNAQLKQ [4H40-bA]	-0.423
DKIAQLEQEIAELKQENAELKWKNAQLEQ [4H2143-bA]	-1.07

(a) DEIAQLEQKNAELKQENAELKWKIAQLEQ [4H477-bA]
(b) DEIAQLEQENAELEQKNAELEWKIAQLKQ [4H182-bA]
Query: // task: argmin of interaction score over [ a , b ] Write down the label of the entry you select.
Response: a
(a: -1.37, b: -0.573)
